system: Saccharomyces cerevisiae; experiment: protein stability index of tFT-peptide fusion (C-terminal peptide) (PSI (0-1 scale)); higher = more stable (slower turnover); conditions: genetic background: das1 deletion; temperature: 30 C

seq_string: GRWVLALCLVCG
protein stability index: 0.202

seq_string: NLTAIIYTLVVD
protein stability index: 0.218

seq_string: HTYSFRLLFIFL
protein stability index: 0.328

seq_string: VGVVVVGDVLVW
protein stability index: 0.279

seq_string: VFRLLLFFVFVF
protein stability index: 0.287

seq_string: PCPAPRPPSPSA
protein stability index: 0.653

* * *

test system: Saccharomyces cerevisiae; experiment: protein stability index of tFT-peptide fusion (C-terminal peptide) (PSI (0-1 scale)); higher = more stable (slower turnover); conditions: genetic background: wild type; temperature: 30 C
Listing of recorded protein stability index by entry.
readout_type: protein stability index

seq_string: HGNDFLQHVNRK [RSM22 C-terminal 12 aa]
study_system: Saccharomyces cerevisiae
observed_value: 0.706
//
seq_string: GSSLITEGVYVI [NSE1 C-terminal 12 aa]
study_system: Saccharomyces cerevisiae
observed_value: 0.683
//
seq_string: QGRQGFNGGSRW [YNL208W C-terminal 12 aa]
study_system: Saccharomyces cerevisiae
observed_value: 0.681
//
seq_string: QLISTPIKDNEH [KIC1 C-terminal 12 aa]
study_system: Saccharomyces cerevisiae
observed_value: 0.682
//
seq_string: GIRRIVHEPLGI [MTE1 C-terminal 12 aa]
study_system: Saccharomyces cerevisiae
observed_value: 0.729
//
seq_string: EKLQLWHSMSND [YOR008C-A C-terminal 12 aa]
study_system: Saccharomyces cerevisiae
observed_value: 0.72
//
seq_string: MFNASSDIFQRN [YML083C C-terminal 12 aa]
study_system: Saccharomyces cerevisiae
observed_value: 0.701
//
seq_string: ELYNIIVKSVPK [YRB2 C-terminal 12 aa]
study_system: Saccharomyces cerevisiae
observed_value: 0.695
//
seq_string: PFLEKLTLSGLL [CDC45 C-terminal 12 aa]
study_system: Saccharomyces cerevisiae
observed_value: 0.694
//
seq_string: FSRASCITVWLV [YPR160C-A C-terminal 12 aa]
study_system: Saccharomyces cerevisiae
observed_value: 0.228
//
seq_string: LVSYFIKVQMKL [ECM3 C-terminal 12 aa]
study_system: Saccharomyces cerevisiae
observed_value: 0.443
//
seq_string: VSDSSYDEYSNE [SYT1 C-terminal 12 aa]
study_system: Saccharomyces cerevisiae
observed_value: 0.672
//
seq_string: GRYAQIHEKHIE [ASN1 C-terminal 12 aa]
study_system: Saccharomyces cerevisiae
observed_value: 0.691
//
seq_string: DPSKLRRVPVIQ [RGL1 C-terminal 12 aa]
study_system: Saccharomyces cerevisiae
observed_value: 0.687
//
seq_string: GESISMLFEHGW [PRS5 C-terminal 12 aa]
study_system: Saccharomyces cerevisiae
observed_value: 0.746
//
seq_string: DKAAPALKKVKM [SFL1 C-terminal 12 aa]
study_system: Saccharomyces cerevisiae
observed_value: 0.71
//
seq_string: RAYCVGFKWVRF [MCH5 C-terminal 12 aa]
study_system: Saccharomyces cerevisiae
observed_value: 0.145
//
seq_string: HYSPFYQLPLIF [YGR240C-A C-terminal 12 aa]
study_system: Saccharomyces cerevisiae
observed_value: 0.575
//
seq_string: NMRFFYRLYVKN [BMT6 C-terminal 12 aa]
study_system: Saccharomyces cerevisiae
observed_value: 0.45
//
seq_string: PICIVGNFIPLS [RDS2 C-terminal 12 aa]
study_system: Saccharomyces cerevisiae
observed_value: 0.722
//
seq_string: INKKKSGSGCIC [YPT10 C-terminal 12 aa]
study_system: Saccharomyces cerevisiae
observed_value: 0.647
//
seq_string: VEPVYLCASLSL [YCR047W-A C-terminal 12 aa]
study_system: Saccharomyces cerevisiae
observed_value: 0.673
//
seq_string: TPTDSTPTKKDI [LAC1 C-terminal 12 aa]
study_system: Saccharomyces cerevisiae
observed_value: 0.725
//
seq_string: LSDDEEEEEEEE [RIX1 C-terminal 12 aa]
study_system: Saccharomyces cerevisiae
observed_value: 0.645
//
seq_string: VVYYQMRCKKMT [BUD26 C-terminal 12 aa]
study_system: Saccharomyces cerevisiae
observed_value: 0.418
//
seq_string: NADDPSYYHYLS [CUL3 C-terminal 12 aa]
study_system: Saccharomyces cerevisiae
observed_value: 0.68
//
seq_string: YVVTSDEHPKTL [SIR2 C-terminal 12 aa]
study_system: Saccharomyces cerevisiae
observed_value: 0.696
//
seq_string: RSKYGAKKPSKS [MRPS12 C-terminal 12 aa]
study_system: Saccharomyces cerevisiae
observed_value: 0.686
//
seq_string: TNTVPATSASSK [RGC1 C-terminal 12 aa]
study_system: Saccharomyces cerevisiae
observed_value: 0.701
//
seq_string: KAIEYFEEYQSW [FRE3 C-terminal 12 aa]
study_system: Saccharomyces cerevisiae
observed_value: 0.695
//
seq_string: LTEMSAKISFED [AAD10 C-terminal 12 aa]
study_system: Saccharomyces cerevisiae
observed_value: 0.779
//
seq_string: QAQLTAATNAKQ [PDC5 C-terminal 12 aa]
study_system: Saccharomyces cerevisiae
observed_value: 0.731
//
seq_string: SKGKNSESGGIF [PPR1 C-terminal 12 aa]
study_system: Saccharomyces cerevisiae
observed_value: 0.711
//
seq_string: KFEKKLYNFLGF [GEP4 C-terminal 12 aa]
study_system: Saccharomyces cerevisiae
observed_value: 0.717
//
seq_string: LGFYYIYTLHRA [ERG9 C-terminal 12 aa]
study_system: Saccharomyces cerevisiae
observed_value: 0.498
//
seq_string: ESTHKEAMGEKN [MNN5 C-terminal 12 aa]
study_system: Saccharomyces cerevisiae
observed_value: 0.675
//
seq_string: SLGSVFTILTDS [YGR228W C-terminal 12 aa]
study_system: Saccharomyces cerevisiae
observed_value: 0.721
//
seq_string: LQEPDRDNDDSG [NTC20 C-terminal 12 aa]
study_system: Saccharomyces cerevisiae
observed_value: 0.7
//
seq_string: DLEFEEQREPKL [NVJ2 C-terminal 12 aa]
study_system: Saccharomyces cerevisiae
observed_value: 0.668
//
seq_string: NVIIQDKTKKTQ [MCD4 C-terminal 12 aa]
study_system: Saccharomyces cerevisiae
observed_value: 0.671
//
seq_string: KLTIRIKQKTHL [YOR316C-A C-terminal 12 aa]
study_system: Saccharomyces cerevisiae
observed_value: 0.682
//
seq_string: RTNHIYNYENSD [DFG16 C-terminal 12 aa]
study_system: Saccharomyces cerevisiae
observed_value: 0.672
//
seq_string: SIVYSWKENSSS [YGL217C C-terminal 12 aa]
study_system: Saccharomyces cerevisiae
observed_value: 0.703
